- procedure-details: Pharmacokinetic parameters of Compound 35, intravenous, mice
- Type: in vivo
- setup-conditions: mouse, 1 mg/kg, plasma
Non-standard residues stand in square brackets, D forms with d. Residues, ends and D or L forms follow the SMILES beside them. Ala(4-thiazolyl) = N[C@@H](Cc1cscn1)C(=O)O; Phe(4-Cl) = N[C@@H](Cc1ccc(Cl)cc1)C(=O)O; Phe(4-F) = N[C@@H](Cc1ccc(F)cc1)C(=O)O; NMeF = CN[C@@H](Cc1ccccc1)C(=O)O; Tle = CC(C)(C)[C@H](N)C(=O)O; hSer = N[C@@H](CCO)C(=O)O; NMeA = CN[C@@H](C)C(=O)O; dNMeA = CN[C@H](C)C(=O)O; Nme = COCCNCC(=O)O
reported-property: AUC(0-t) (ng·h/mL)
Report only the number, with the unit ng·h/mL understood.

Lookup: What value of AUC(0-t) has been recorded for this entry: COCC[C@@H]1NC(=O)[C@H]2CCCN2C(=O)[C@H](Cc2ccccc2)N(C)C(=O)[C@H](Cc2ccc(Cl)cc2)NC(=O)[C@H](C(C)(C)C)NC(=O)[C@H](Cc2ccc(F)cc2)NC(=O)CN(CCOC)C(=O)[C@@H](C)N(C)C(=O)[C@H](Cc2cscn2)NC(=O)[C@H](C)N(C)C1=O [Compound 35] (cyclo([Ala(4-thiazolyl)][dNMeA][Nme][Phe(4-F)][Tle][Phe(4-Cl)][NMeF][dP][hSer](Me)[NMeA]))
Found: 1040
